Target: T1, Axl (Homo sapiens, UniProt P30530)
T1 sequence (P30530 26-451 limits assumed): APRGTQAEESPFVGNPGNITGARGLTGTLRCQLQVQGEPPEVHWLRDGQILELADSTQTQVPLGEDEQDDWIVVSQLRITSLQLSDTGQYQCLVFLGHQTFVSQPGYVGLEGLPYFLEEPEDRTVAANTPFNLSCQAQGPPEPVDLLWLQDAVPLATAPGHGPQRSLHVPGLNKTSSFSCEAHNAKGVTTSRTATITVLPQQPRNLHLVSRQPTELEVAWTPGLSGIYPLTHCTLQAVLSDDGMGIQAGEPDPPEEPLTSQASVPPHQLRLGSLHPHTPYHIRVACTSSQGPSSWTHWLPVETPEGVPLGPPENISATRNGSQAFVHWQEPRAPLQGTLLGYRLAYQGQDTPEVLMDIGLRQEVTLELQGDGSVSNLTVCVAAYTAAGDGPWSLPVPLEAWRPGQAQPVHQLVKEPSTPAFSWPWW
Assay: Affinity ELISA of CPE mutant antibodies for binding to Axl at pH 6.0 over pH 7.4
Conditions: heavy chain variable region mutants; 1:9 dilution
measurement name: Affinity ELISA CPE mutant ratio (1:9, pH 6.0/7.4)

molecule | observed value
HC-F105V (antibody, V domains shown) VH: EVQLVQSGAEVKKPGATVKISCKVSGYSFTGHTMNWIRQPPGKGLEWIGLIKPSNGGTSYNQKFKGRVTISADKSISTAYLQWSSLKASDTAMYYCAHGHYESYVAMDYWGQGTLVTVSS VL: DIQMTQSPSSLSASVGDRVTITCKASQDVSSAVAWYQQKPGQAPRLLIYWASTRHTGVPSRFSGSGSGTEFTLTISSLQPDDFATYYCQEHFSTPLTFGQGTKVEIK | 2.801
HC-W110A (antibody, V domains shown) VH: EVQLVQSGAEVKKPGATVKISCKVSGYSFTGHTMNWIRQPPGKGLEWIGLIKPSNGGTSYNQKFKGRVTISADKSISTAYLQWSSLKASDTAMYYCAHGHYESYFAMDYAGQGTLVTVSS VL: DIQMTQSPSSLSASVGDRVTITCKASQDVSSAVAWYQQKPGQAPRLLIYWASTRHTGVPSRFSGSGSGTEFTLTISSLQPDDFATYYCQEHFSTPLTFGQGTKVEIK | 1.198
